Target Under Test: PolQ ATPase enzyme (1-894) (Homo sapiens (Human), UniProt O75417)
Sequence (O75417 1-894): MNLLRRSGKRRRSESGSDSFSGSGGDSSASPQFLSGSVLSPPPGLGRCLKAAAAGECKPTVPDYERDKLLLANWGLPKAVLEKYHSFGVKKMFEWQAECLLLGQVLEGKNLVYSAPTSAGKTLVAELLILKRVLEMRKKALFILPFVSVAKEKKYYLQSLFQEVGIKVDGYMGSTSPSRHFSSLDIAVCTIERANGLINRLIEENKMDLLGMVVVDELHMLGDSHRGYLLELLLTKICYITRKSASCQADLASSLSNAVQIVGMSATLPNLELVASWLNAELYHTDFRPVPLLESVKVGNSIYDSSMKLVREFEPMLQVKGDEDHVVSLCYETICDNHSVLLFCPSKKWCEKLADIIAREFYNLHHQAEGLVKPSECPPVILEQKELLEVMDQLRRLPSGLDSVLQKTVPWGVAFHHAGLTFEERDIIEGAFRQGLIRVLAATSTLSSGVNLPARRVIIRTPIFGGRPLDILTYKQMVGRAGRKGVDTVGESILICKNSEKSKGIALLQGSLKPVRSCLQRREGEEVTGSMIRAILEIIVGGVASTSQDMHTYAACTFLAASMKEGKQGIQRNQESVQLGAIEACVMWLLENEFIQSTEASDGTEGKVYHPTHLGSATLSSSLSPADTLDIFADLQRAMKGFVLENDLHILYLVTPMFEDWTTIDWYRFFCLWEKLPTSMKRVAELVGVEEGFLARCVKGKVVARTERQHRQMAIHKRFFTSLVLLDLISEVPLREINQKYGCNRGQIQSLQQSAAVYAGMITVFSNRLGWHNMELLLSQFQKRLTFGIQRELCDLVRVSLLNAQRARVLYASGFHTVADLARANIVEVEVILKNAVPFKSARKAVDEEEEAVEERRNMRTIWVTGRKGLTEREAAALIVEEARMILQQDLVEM
Experimental Protocol: Polθ ATPase enzymatic assay (0.5 nM enzyme concentration), ADP-Glo
Type: biochemical
Test Context: average IC50; 0.5 nM PolQ ATPase enzyme (1-894)
Measurement Type: IC50 (nM)
Write down the numeric answer in nM and omit the unit.

# annotated cases, reported IC50 shown
Compound	Unit Descriptor	IC50
COc1ccc(C(F)(F)F)cc1-c1cn(C)c(=O)cc1C(=O)Nc1nnc(C#Cc2cc(C)[nH]n2)s1 [Compound 102]	nM	1.2
COc1cnc(C(F)F)cc1-c1cc(NC(C)=O)ccc1C(=O)Nc1nnc(C#CC2CC2)s1 [Compound 225]	nM	0.56
COc1cnc(C(F)F)cc1-c1cc(-c2nnc(C)o2)ccc1C(=O)Nc1nnc(C2C[C@H]2c2ccc(C#N)cc2)s1 (stereo partly drawn) [Compound 168]	nM	0.34
CNC(=O)Cn1cc(-c2cc(C(F)(F)F)ccc2OC)c(C(=O)Nc2nnc(C#CC3CC3)s2)cc1=O [Compound 93]	nM	0.32

# get_value(readout='IC50', item= COc1ccc(C(F)(F)F)cc1-c1cn(C)c(=O)cc1C(=O)Nc1nnc(C#CC2CCOCC2)s1 [Compound 337] )
9.2

Similarly, COc1cnc(C(F)F)cc1-c1cc(N2CCCN(C)CC2=O)ncc1C(=O)Nc1nnc(C#CC2CC2)s1 [Compound 441] ?
0.43

Input COc1cnc(C(F)F)cc1-c1cc(CC(=O)N(C)C)ccc1C(=O)Nc1ncc(C#CC2CC2)s1 [Compound 215]
0.31

Another compound to check: COc1cnc(C(F)F)cc1-c1cnccc1C(=O)Nc1nnc([C@@H]2C[C@H]2c2ccc(C#N)cc2)s1 [Compound 274]
0.51

Reference source: patent US20250026748A1
